Target: human granzyme B (Homo sapiens, UniProt P10144)
Construct: from tissue; host or cells: human lymphocytes
Sequence (P10144 21-247): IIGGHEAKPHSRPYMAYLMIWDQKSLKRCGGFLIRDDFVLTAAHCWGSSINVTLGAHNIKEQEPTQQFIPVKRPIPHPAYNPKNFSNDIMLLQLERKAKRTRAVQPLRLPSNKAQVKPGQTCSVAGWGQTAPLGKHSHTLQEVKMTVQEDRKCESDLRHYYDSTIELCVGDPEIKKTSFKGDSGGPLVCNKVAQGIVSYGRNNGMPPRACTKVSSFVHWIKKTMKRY
Test: Competitive binding assay of human granzyme B with Compound ^18F-21-Al radioligand
Settings: competition with 20 nM Compound ^18F-21-Al, human lymphocyte GZB, 37° C., 90 minutes
Attribute measured: IC50 (nM)
I only need the number, in nM, no unit after it.

What value of IC50 has been recorded for this entry: CC[C@H](C)[C@H](NC(=O)COCCNC(=O)[C@@H](CCC(=O)O)NC(=O)[C@@H](CCC(=O)O)NC(=O)CN1CCN(C(=O)CN2CCN3CCN(CC2)CC(=O)[O][Al]([F])[O]C(=O)C3)CC1)C(=O)N[C@H]1CCc2cccc3c2N(C1=O)[C@H](C(=O)NC1CC(=O)OC1O)C3 (some centres unmarked)
3.6

What value of IC50 has been recorded for this entry: CC[C@H](C)[C@H](NC(=O)CCNC(=O)CCNC(=O)CN(CC(=O)O)C(=O)CN1CCC(CN2CCN3CCN(CC2)CC(=O)[O][Al]([F])[O]C(=O)C3)CC1)C(=O)N[C@H]1CCc2cccc3c2N(C1=O)[C@H](C(=O)NC1CC(=O)OC1O)C3 (some centres unmarked)
5.7

----------
Numbered stars: 1 amine (or outer) side, 2 acyl side, 3 side chain; on linkers, the order of the positions; unused ones are H or OH. Square brackets hold non-standard residues; d marks the D form. Peptide text beside a SMILES is read from it. * marks the point of attachment. X2 = O=C1CN2CCN(CCN(CC3CCN(CC(=O)*)CC3)CC2)CC(=O)[O][Al]([F])[O]1; Haic = O=C1[C@@H](N[*:1])CCc2cccc3c2N1[C@H](C(=O)[*:2])C3; NH(5-HO-2-oxo-oxolan-4-yl) = O=C1CC(N*)C(O)O1
The following molecules each carry a recorded pIC50 for human granzyme B (Homo sapiens).
When answering, recall that pIC50 equals minus log10 of the concentration in mol/L, and write that number alone.

Use the examples below as a reference point.
# Molecule, Observed value
data = [
    ("CC[C@H](C)[C@H](NC(=O)CCNC(=O)CCNC(=O)[C@@H](CCC(=O)O)NC(=O)[C@@H](CCC(=O)O)NC(=O)CN1CCN(C(=O)CN2CCN3CCN(CC2)CC(=O)[O][Al]([F])[O]C(=O)C3)CC1)C(=O)N[C@H]1CCc2cccc3c2N(C1=O)[C@H](C(=O)NC1CC(=O)OC1O)C3 (stereo partly drawn)", 8.38),
    ("CC[C@H](C)[C@H](NC(=O)COCCNC(=O)[C@@H](CCC(=O)O)NC(=O)CN1CCN(C(=O)CN2CCN3CCN(CC2)CC(=O)[O][Al]([F])[O]C(=O)C3)CC1)C(=O)N[C@H]1CCc2cccc3c2N(C1=O)[C@H](C(=O)NC1CC(=O)OC1O)C3 (stereo partly drawn)", 8.46),
]

What value of pIC50 has been recorded for this entry: CC[C@H](C)[C@H](NC(=O)CNC(=O)CNC(=O)[C@H](CCC(=O)O)NC(=O)CN1CCC(CN2CCN3CCN(CC2)CC(=O)[O][Al]([F])[O]C(=O)C3)CC1)C(=O)N[C@H]1CCc2cccc3c2N(C1=O)[C@H](C(=O)NC1CC(=O)OC1O)C3 (stereo partly drawn) [Compound 2-Al] (X2-EGGI[Haic]-{NH(5-HO-2-oxo-oxolan-4-yl)})
8.12
